Where do the numbers come from? From patent US20240400708A1.

studySystem: feline FcRn complex (FcRn-α subunit and β-microglobulin), biotin labeled (feline)
protocolText: SPR, pH 6
pKd: −log10 of the molar value.
readoutName: pKd

[[record]]
binder = "feline IgG1a H436R (antibody, part only; not given: Variable domains, not shown: another chain or arm of the molecule) constant: ASTTAPSVFPLAPSCGTTSGATVALACLVLGYFPEPVTVSWNSGALTSGVHTFPAVLQASGLYSLSSMVTVPSSRWLSDTFTCNVAHPPSNTKVDKTVRKTDHPPGPKPCDCPKCPPPEMLGGPSIFIFPPKPKDTLSISRTPEVTCLVVDLGPDDSDVQITWFVDNTQVYTAKTSPREEQFNSTYRVVSVLPILHQDWLKGKEFKCKVNSKSLPSPIERTISKAKGQPHEPQVYVLPPAQEELSRNKVSVTCLIKSFHPPDIAVEWEITGQPEPENNYRTTPPQLDSDGTYFVYSKLSVDRSHWQRGNTYTCSVSHEALHSHRTQKSLTQSPGK"
readoutnumber = 8.24

